Molecular target: T1, Human β-Klotho (human, UniProt Q86Z14 1-996)
T1 sequence (looked up): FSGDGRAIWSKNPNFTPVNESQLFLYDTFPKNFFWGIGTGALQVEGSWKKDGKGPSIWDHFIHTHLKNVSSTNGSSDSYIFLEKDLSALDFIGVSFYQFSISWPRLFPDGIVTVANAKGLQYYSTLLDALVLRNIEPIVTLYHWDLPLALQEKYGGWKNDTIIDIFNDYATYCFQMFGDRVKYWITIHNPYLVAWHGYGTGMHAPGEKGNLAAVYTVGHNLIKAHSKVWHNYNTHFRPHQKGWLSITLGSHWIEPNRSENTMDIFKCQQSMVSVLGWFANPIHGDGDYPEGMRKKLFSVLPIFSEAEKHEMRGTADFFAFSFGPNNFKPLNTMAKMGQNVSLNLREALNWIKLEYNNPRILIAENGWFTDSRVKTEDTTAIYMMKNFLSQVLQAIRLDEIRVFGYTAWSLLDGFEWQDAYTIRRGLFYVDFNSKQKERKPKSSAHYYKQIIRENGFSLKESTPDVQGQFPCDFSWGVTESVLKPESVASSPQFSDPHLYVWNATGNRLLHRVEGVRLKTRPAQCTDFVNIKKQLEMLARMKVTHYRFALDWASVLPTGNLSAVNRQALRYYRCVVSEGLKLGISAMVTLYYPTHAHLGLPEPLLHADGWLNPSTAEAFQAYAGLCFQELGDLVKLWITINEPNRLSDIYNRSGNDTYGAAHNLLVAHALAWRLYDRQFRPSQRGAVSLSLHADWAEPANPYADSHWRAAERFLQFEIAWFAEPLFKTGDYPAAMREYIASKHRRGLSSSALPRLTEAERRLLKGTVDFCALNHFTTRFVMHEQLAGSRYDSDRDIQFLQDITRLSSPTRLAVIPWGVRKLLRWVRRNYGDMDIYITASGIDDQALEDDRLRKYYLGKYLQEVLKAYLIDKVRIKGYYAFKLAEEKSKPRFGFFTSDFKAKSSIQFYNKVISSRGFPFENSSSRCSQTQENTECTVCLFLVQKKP
Assay: cell-based or functional assay
List of EC50 of FGFR1c/β-Klotho activation, luciferase reporter in modified HEK293 cells, 6 h values.
Report as: number unit

Provide measured EC50 of FGFR1c/β-Klotho activation, luciferase reporter in modified HEK293 cells, 6 h value, entry: htFGF21 variant with S195G, P199G, and S200G mutations (htM3) (ligand, human, UniProt Q9NSA1 33-209, looked up, human FGF21 with S195G, P199G and S200G; A Gly from the TEV site probably remains at the N-terminus (surmised); not shown: Trx, N-terminal, cleaved) DSSPLLQFGGQVRQRYLYTDDAQQTEAHLEIREDGTVGGAADQSPESLLQLKALKPGVIQILGVKTSRFLCQRPDGALYGSLHFDPEACSFRELLLEDGYNVYQSEAHGLPLHLPGNKSPHRDPAPRGPARFLPLPGLPPALPEPPGILAPQPPDVGSSDPLGMVGGGQGRSPSYAS
0.75 ng/mL
